// provenance: paper PMC9321663

Reported CC50 values are given for each entry in this list.
- EXPERIMENT DESCRIPTION: in vitro
- DETAILS: human
- Protocol: The total test chemical incubation period was 48 h. Assay plate controls included non-differentiated pluripotent cells maintained in complete Essential 8 Flex medium (baseline control), endoderm differentiated cells (differentiation control), endoderm differentiated cells treated with DMSO (0.2%) (solvent control), and TGF-ß receptor inhibitor SB431542 (1 µM)-treated cells (developmental toxicant-positive control) (Figure S3). […]
Starred links: 1 amine or outer side, 2 acyl side, 3 side chain; linkers in the order of their positions; H or OH if unused. Positions of bridges follow the written chain, without caps; N, C: chain ends. Non-standard residues stand in square brackets, D forms with d. Residues, ends and D or L forms follow the SMILES beside them. Chains are numbered I, II in the order given. Actinocin(9to1) = Cc1c2oc3c(C)ccc(C(=O)[*:1])c3nc-2c(C(=O)[*:2])c(N)c1=O; NMeV = CN[C@H](C(=O)O)C(C)C; Sar = CNCC(=O)O
Write the number in µM without appending the unit.

| COMPOUND | READOUT TYPE | UNIT TAG | VALUE |
| --- | --- | --- | --- |
| Cc1c2oc3c(C)ccc(C(=O)N[C@@H]4C(=O)N[C@H](C(C)C)C(=O)N5CCC[C@H]5C(=O)N(C)CC(=O)N(C)[C@@H](C(C)C)C(=O)O[C@@H]4C)c3nc-2c(C(=O)N[C@@H]2C(=O)N[C@H](C(C)C)C(=O)N3CCC[C@H]3C(=O)N(C)CC(=O)N(C)[C@@H](C(C)C)C(=O)O[C@@H]2C)c(N)c1=O [Actinomycin D] (I: T[dV]P[Sar][NMeV] / II: T[dV]P[Sar][NMeV]; ester I:1-I:C, II:1-II:C; linker I:N-II:N via Actinocin(9to1)) | CC50 | µM | 0.00048 |

Now for a further compound.
Ask: Which CC50 is reported for this compound? NC(=O)c1ccc(N)nc1 [6-Aminonicotinamide, 6−aminopyridine−3−carboxamide]
Result: 23.9

---

- Test system: SOX17 (endoderm marker) in RUES2-GLR cells
- EXPERIMENT DESCRIPTION: DevTox GLR-Endo assay: increase in percent SOX17-positive cells (AEID 3093, Sox17_up)
- Assay type: cell-based, human
- DETAILS: Homo sapiens; tcpl plot AEID3093, maximum mean response; read-out: MAX_MEAN
READOUT TYPE: Emax (%)
Expressed in %, but write only the number.

Answered cases to consult:
| MOLECULE | READOUT TYPE | VALUE |
| --- | --- | --- |
| O=c1[nH]c(=O)n([C@H]2C[C@H](O)[C@@H](CO)O2)cc1Br | Emax | -2.88 |
| CN(Cc1cnc2nc(N)nc(N)c2n1)c1ccc(C(=O)N[C@@H](CCC(=O)O)C(=O)O)cc1 [Methotrexate] | Emax | 2.23 |
| O=c1[nH]cc(F)c(=O)[nH]1 | Emax | 3.38 |

Ask: State the recorded Emax for this entry: COc1cccc2c1C(=O)c1c(O)c3c(c(O)c1C2=O)C[C@@](O)(C(=O)CO)C[C@@H]3O[C@H]1C[C@H](N)[C@H](O)[C@H](C)O1
Result: 50.4

Ask: Using the record for CCCCOC(=O)c1ccc(O)cc1 [Butylparaben, 4−Hydroxybenzoic acid butyl ester] , report its Emax.
Result: 8.67

Ask: GET /values?readout=Emax&item= NC(=O)N1c2ccccc2C=Cc2ccccc21 [Carbamazepine]
Result: 12.3

Ask: Reported Emax for CCCCc1oc2ccccc2c1C(=O)c1cc(I)c(OCCN(CC)CC)c(I)c1 : what is it?
Result: 6.18

Ask: Recorded Emax for CC(C)(c1ccc(O)cc1)c1ccc(O)cc1 , please?
Result: 9.9
